Let's look at some pIC50 data for UniProt:P24530 that I collected from the literature.
pIC50: −log10 of the molar value.
assay metric: pIC50

COc1ccc([C@@H]2c3nc(CCC(=O)O)ccc3C(c3ccc4c(c3)OCO4)[C@H]2C(=O)O)cc1 (single isomer, unassigned)	6.28
Cn1cc(C(C(=O)NS(=O)(=O)c2ccccc2C(=O)O)c2ccc3c(c2)OCO3)c2ccc(C(N)=O)cc21 (stereo unspecified)	6.07
COc1ccc([C@@H]2c3nc(-c4ccccc4)ccc3C(c3ccc4c(c3)OCO4)[C@H]2C(=O)O)cc1 (single isomer, unassigned)	6.89
COc1ccc([C@@H]2c3nc(N(C)C(C)C)ccc3C(c3ccc4c(c3)OCO4)[C@H]2C(=O)O)cc1 (single isomer, unassigned)	7.85
Cc1ccc(CC(=O)c2sccc2S(=O)(=O)Nc2onc(C)c2Br)c(C)c1	5.46
COc1ccc([C@H]2[C@H](C(=O)O)[C@@H](c3ccc4c(c3)OCO4)CN2CC(=O)NC(CC(C)C)c2ccccc2)cc1 (stereo partly specified)	8.47
Cc1ccc(CC(=O)c2sccc2S(=O)(=O)Nc2onc(C)c2C)cc1	4.53
Cc1oc([C@@H](Cc2cn(C)c3ccccc23)NC(=O)[C@H](CC(C)C)OC(=O)NC2CCCCC2)nc1C(=O)O	4.32
COCCOc1ccc([C@H]2[C@H](C(=O)O)[C@@H](c3ccc4c(c3)OCO4)CN2CC(=O)NC(c2ccccc2C)c2ccccc2C)cc1.O=C(O)C(F)(F)F (stereo in doubt; form 2)	8.77
CCc1cc2c(cc1Cn1c(C(=O)O)c(Cc3cccc(C(=O)O)c3)c(=O)c3cc(OCC(=O)O)ccc31)OCO2	5.84
Cc1noc(NS(=O)(=O)c2cc(-c3ccccc3)cs2)c1Br	4.87
COc1ccc([C@H]2[C@H](C(=O)O)[C@@H](c3ccc4c(c3)OCO4)CN2CC(=O)NC(C)c2ccccc2C)cc1 (stereo partly specified)	7.74
COc1ccccc1Oc1c(NS(=O)(=O)c2ccc(C(C)(C)C)cc2)nc(C2CC2)nc1OCCOC(=O)Nc1ccccn1	7.22

* * *

Literature pIC50 values, system: the protein given by its sequence.
Protein target, amino acids: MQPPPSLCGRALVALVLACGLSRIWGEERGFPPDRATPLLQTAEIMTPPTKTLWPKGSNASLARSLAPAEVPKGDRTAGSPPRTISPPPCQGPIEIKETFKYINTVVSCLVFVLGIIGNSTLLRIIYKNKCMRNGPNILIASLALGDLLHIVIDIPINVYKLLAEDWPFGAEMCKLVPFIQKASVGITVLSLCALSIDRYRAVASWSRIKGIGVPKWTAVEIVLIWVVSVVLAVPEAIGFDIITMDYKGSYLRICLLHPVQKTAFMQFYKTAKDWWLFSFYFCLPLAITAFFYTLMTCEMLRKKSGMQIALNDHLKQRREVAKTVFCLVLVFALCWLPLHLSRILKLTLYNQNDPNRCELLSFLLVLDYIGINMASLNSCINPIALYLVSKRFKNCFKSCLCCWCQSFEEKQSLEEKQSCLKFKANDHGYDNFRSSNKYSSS
pIC50: −log10 of the molar value.
assay metric: pIC50

Cc1noc(NS(=O)(=O)c2ccsc2C(=O)Oc2ccc3c(c2)OCO3)c1Br	5.24
CCc1cccc(CC)c1NC(=O)CN1C[C@H](c2ccc3c(c2)OCO3)[C@@H](C(=O)O)[C@@H]1c1ccc(OC)cc1 (stereo in doubt; 36)	9.57
Cc1ccc(OCc2ccsc2S(=O)(=O)Nc2onc(C)c2Br)c(C)c1	5.14
COc1ccc([C@@H]2c3nc(NC(C)C)ccc3[C@H](c3ccc4c(c3)OCO4)[C@H]2C(=O)O)c(CC(C)CO)c1 (stereo in doubt; form 2)	7.29

* * *

Here, compounds appear alongside pIC50 reported for UniProt:P24530 in the literature.
pIC50: −log10 of the molar value.
assay metric: pIC50

COCC(C)Cc1cc(OC)ccc1[C@@H]1c2nc(NC(C)C)ccc2[C@H](c2ccc3c(c2)OCO3)[C@H]1C(=O)O (stereo in doubt; form 1)	7.32
CCc1cccc(CC)c1NC(=O)CN1C[C@H](c2ccc3c(c2)OCO3)[C@@H](C(=O)O)[C@@H]1c1ccc(OCCOC)cc1 (stereo in doubt; 39)	9.07
C/C=C/C=C/C(=O)O[C@@H]1C=C2COC(O)[C@]2(O)[C@@]2(C)CCCC(C)(C)C12 (some centres not stated)	3.83
Cc1noc(NS(=O)(=O)c2ccsc2/C(Cc2ccc3c(c2)OCO3)=N\O)c1Cl	5.38
CC(C)c1ccc(S(=O)(=O)NC(=O)C(c2ccc3c(c2)OCO3)c2cn(C)c3cc(C(=O)O)ccc23)cc1 (configuration not stated)	5.82
COc1ccc([C@@H]2c3nc(NC(C)C)ccc3[C@H](c3ccc4c(c3)OCO4)[C@H]2C(=O)O)c(CC(O)CO)c1 (single isomer, unassigned)	8.22
CCC(CC)C(NC(=O)CN1C[C@H](c2ccc3c(c2)OCO3)[C@@H](C(=O)O)[C@@H]1c1ccc(OC)cc1)c1ccccc1 (some centres not stated)	8.96

* * *

Collected set of pIC50 measured with the protein given by its sequence across studies.
Protein target, amino acids: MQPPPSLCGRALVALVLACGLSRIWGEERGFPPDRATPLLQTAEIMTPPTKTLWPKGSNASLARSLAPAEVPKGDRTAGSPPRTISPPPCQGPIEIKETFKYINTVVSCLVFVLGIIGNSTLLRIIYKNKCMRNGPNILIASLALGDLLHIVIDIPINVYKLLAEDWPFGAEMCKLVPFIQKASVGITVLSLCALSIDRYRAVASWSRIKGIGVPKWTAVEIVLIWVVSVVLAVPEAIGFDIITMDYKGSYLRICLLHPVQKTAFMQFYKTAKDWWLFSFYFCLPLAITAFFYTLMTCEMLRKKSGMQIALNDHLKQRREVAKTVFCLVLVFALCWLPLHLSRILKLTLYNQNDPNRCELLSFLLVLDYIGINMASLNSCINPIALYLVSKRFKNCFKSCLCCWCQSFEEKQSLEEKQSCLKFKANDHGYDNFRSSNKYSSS
pIC50: −log10 of the molar value.
assay metric: pIC50

COc1ccc(NC(=O)c2sccc2S(=O)(=O)Nc2onc(C)c2Cl)c(OC)c1	4.28
Cc1cc2c(cc1CC(=O)c1sccc1S(=O)(=O)Nc1noc(C)c1Cl)OCO2	5.41
CCc1cc2c(cc1Cn1c(C(=O)O)c(Cc3cccc(C(=O)O)c3)c(=O)c3cc(O)ccc31)OCO2	4.81
Cc1noc(NS(=O)(=O)c2ccsc2C(=O)Nc2ccc3c(c2C#N)OCO3)c1Cl	4.39

* * *

Hi, quick share: literature IC50 data for Endothelin receptor type B (Homo sapiens, UniProt P24530), several sources combined.
assay metric: IC50

Cc1noc(NS(=O)(=O)c2ccsc2C(=O)Oc2ccccc2)c1Cl	> 100 µM
Cc1[nH]c([C@@H](Cc2cn(C)c3ccccc23)NC(=O)[C@@H](CC(=O)NC2CCCCC2)CC(C)C)nc1C(=O)O	> 100 µM
Cc1noc(NS(=O)(=O)c2cccs2)c1Br	> 100 µM
